Target: MKNK2 (human) (UniProt Q9HBH9)
Sequence (Q9HBH9 whole entry, looked up): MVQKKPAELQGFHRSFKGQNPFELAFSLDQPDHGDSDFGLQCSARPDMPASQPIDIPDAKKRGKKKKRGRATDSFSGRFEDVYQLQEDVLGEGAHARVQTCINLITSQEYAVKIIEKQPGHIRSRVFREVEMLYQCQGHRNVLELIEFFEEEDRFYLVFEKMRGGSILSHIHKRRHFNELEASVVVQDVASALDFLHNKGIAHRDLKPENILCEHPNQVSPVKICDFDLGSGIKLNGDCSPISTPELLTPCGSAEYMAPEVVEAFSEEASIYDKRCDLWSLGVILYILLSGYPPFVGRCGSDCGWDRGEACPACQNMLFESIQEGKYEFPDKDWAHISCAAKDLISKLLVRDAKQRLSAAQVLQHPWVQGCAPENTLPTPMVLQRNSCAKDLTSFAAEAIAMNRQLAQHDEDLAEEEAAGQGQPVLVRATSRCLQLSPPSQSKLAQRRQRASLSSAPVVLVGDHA
Experiment: KINOMEscan competition binding
Conditions: compound 10.0 µM
With a cut-off of 20%, any kinase still bound, per cent of control strictly below it is called class 1; any kinase still bound, per cent of control meeting it or above is called class 0.

Reference set, count: 3
CCc1nc(-c2cccc(C)c2)c(-c2ccnc(NC(=O)c3ccccc3)c2)s1 = class 0
CC1=C(C(=O)Nc2cc3cn[nH]c3cc2F)C(c2ccc(C(F)(F)F)cc2)CC(=O)N1 (centres undefined) = class 0
N#Cc1cc(-c2ccnc(Nc3ccc(-n4cnc(-c5cccnc5)n4)cc3)n2)cc(N2CCOCC2)c1 = class 0

State whether 20% exceeds kinase still bound, per cent of control recorded for `COc1cc2ncnc(Nc3cccc(Cl)c3)c2cc1OC` . class 1

For this compound, is kinase still bound, per cent of control lower than 20%? `CCOc1cc(N2CCC(O)CC2)ccc1Nc1ncc2c(n1)N(C)c1ccccc1C(=O)N2C` class 0

Regarding COc1cc(C)c(Sc2cnc(NC(=O)c3ccc(CNC(C)C(C)C)cc3)s2)cc1C(=O)N1CCN(C(C)=O)CC1 (centres undefined) , kindly confirm whether its kinase still bound, per cent of control is beneath 20%. class 0

Hello, I'm reviewing records and need to know if kinase still bound, per cent of control of `CCCS(=O)(=O)Nc1ccc(F)c(C(=O)c2c[nH]c3ncc(Cl)cc23)c1F` is below 20%. Could you check? class 0

Strictly below 20%: is that where kinase still bound, per cent of control of `COc1cc(N2CCC(C(N)=O)CC2)ccc1Nc1nc(N)c(Cl)c(Nc2ccccc2S(=O)(=O)C(C)C)n1` sits? class 1

* * *

Here the recorded kinase still bound, per cent of control is given for each entry.
Target: PRKCD (human) (UniProt Q05655)
Sequence (Q05655 whole entry, looked up): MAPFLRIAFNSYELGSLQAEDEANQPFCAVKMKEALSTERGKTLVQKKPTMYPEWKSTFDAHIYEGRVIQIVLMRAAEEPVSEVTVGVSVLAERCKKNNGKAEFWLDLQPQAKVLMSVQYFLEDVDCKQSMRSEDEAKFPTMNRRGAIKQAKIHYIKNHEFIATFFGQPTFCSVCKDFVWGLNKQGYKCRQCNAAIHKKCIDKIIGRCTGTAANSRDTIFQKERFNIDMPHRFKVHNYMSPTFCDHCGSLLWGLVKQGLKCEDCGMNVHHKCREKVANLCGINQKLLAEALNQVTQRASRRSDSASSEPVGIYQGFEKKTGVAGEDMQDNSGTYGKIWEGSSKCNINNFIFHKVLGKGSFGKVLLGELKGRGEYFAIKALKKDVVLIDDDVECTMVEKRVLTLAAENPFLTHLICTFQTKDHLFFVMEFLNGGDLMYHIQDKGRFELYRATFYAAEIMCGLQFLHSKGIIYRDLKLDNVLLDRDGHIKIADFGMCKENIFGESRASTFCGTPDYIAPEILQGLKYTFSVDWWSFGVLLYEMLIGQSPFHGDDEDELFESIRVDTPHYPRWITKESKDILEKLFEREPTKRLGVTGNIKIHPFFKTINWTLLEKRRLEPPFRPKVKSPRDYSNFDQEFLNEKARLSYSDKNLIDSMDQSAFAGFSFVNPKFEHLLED
Test: KINOMEscan competition binding
Settings: compound 10.0 µM
Give just the numeric value; % need not be written.

Use these answered entries as a reference point.
CCN1CCN(Cc2ccc(NC(=O)c3ccc(C)c(/C=C/c4cnc5[nH]ccc5c4OC)c3)cc2C(F)(F)F)CC1 = 49
C=CC(=O)Nc1ccc(C(=O)c2sc(Nc3ccc(N4CCN(C)CC4)cc3OC)nc2N)cc1 = 100
CCN(CCO)CCCOc1ccc2c(Nc3cc(CC(=O)Nc4cccc(F)c4)[nH]n3)ncnc2c1 = 91
COc1cc2c(Nc3ccc(NC(=O)c4ccccc4)cc3)ncnc2cc1OCCCN1CCOCC1 = 100
CNC(=O)Nc1ccc(-c2nc(N3CC4CCC(C3)O4)c3cnn(C4CCC5(CC4)OCCO5)c3n2)cc1 = 100
Cc1cn(-c2cc(C(=O)Nc3ccc(C)c(NC(=O)c4ccno4)c3)cc(C(F)(F)F)c2)cn1 = 100
CCc1nc(-c2cccc(C)c2)c(-c2ccnc(NC(=O)c3ccccc3)c2)s1 = 50
N#C/C(=C1/Nc2ccccc2S1)c1ccnc(NCCc2cccnc2)n1 = 100

Quick one: kinase still bound, per cent of control for `COc1cc(N2CCC(C(N)=O)CC2)ccc1Nc1nc(N)c(Cl)c(Nc2ccccc2S(=O)(=O)C(C)C)n1` ? 100

What kinase still bound, per cent of control value was documented for this molecule, `CC(=O)c1c(C)c2cnc(Nc3ccc(N4CCNCC4)cn3)nc2n(C2CCCC2)c1=O` ? 90

What value of kinase still bound, per cent of control has been recorded for this entry: `N#Cc1cc(-c2ccnc(Nc3ccc(-n4cnc(-c5cccnc5)n4)cc3)n2)cc(N2CCOCC2)c1` 65

Any idea what its kinase still bound, per cent of control is? The molecule is CC1=C(C(=O)Nc2cc3cn[nH]c3cc2F)C(c2ccc(C(F)(F)F)cc2)CC(=O)N1 (stereo not drawn) 39

Suppose we examine the molecule `COc1ccc(N(C(=O)Oc2cc(C(=O)Nc3cccc(C(F)(F)F)c3)ccc2C)c2ccnc(Nc3ccc(N4CCN(C)CC4)cc3)n2)c(OC)c1` ; what kinase still bound, per cent of control value has been reported? 100

Values from the kinase profiling compilation of Christmann-Franck et al. (2016)
